test system: KM12; assay: NCI tumour cell line growth inhibition, 48 h
Calls of active or inactive are those of the source. Rule as the data show it: active = GI50 up to about 1.1 µM and inactive = higher.
Outcome field: choose from active, inactive

Completed entries (count: 5):
Compound	Class Assignment
S=C1CSc2c(cnc3ccccc23)N1	inactive
Cc1n[n+](Cc2ccccc2)c2sc(N)nn12	inactive
COC(=O)C1[C@H](C(=O)OC)C1(Br)CBr (some centres undefined)	inactive
CC(=O)NC(Cc1ccsc1)C(=O)O (centres undefined)	inactive
Cn1c(=O)c2ccc(-c3ccc(Br)cc3)nc2n(C)c1=O	inactive

Task: // param item: Cn1ccc2c(c1=O)C(=O)OC2(C)C ; yields the recorded call
Output: inactive

Task: Please let me know the test result on file for Nc1c(S(N)(=O)=O)cc(S(N)(=O)=O)cc1S(N)(=O)=O .
Output: inactive

Task: Recorded call for COc1ccc(C(OCC2OC(n3ccc(NC(=O)c4ccccc4)nc3=O)C(O)C2O)(c2ccccc2)c2ccccc2)cc1 (centres undefined) ?
Output: inactive

Task: Dear colleague, could you share the recorded outcome for C/C(Cl)=N/OC(=O)Nc1ccc(S(N)(=O)=O)c(C)c1 when you have a moment?
Output: inactive

Task: How was CC(=O)OCC1OC(n2c(C)c(C)cc(C#N)c2=S)C(OC(C)=O)C(OC(C)=O)C1OC(C)=O (centres undefined) classified in this test?
Output: inactive

Task: Answer briefly: the call reported for CC(=O)OC1c2ccccc2CCCCCCC12OCCO2 (centres undefined) in this assay.
Output: inactive

Task: Each compound tested received a call. Report the one for O=c1[nH]/c(=C/c2ccc(OCc3ccccc3)cn2)c(=O)[nH]/c1=C/c1ccc(O)cc1 .
Output: inactive

Task: Could you kindly confirm the outcome this assay logged for N=C(N)c1ccc(/N=N/c2c(O)ccc3cc(O)ccc23)cc1 ?
Output: inactive

Task: // param item: COc1ccc(/C=C2/CCS(=O)(=O)c3ccc(C)cc3C2=O)cc1OC ; yields the recorded call
Output: inactive

Task: What is the recorded call for this compound in the test? N#Cc1c(N)c2c(c(-c3ccccc3)c1-c1ccccc1)C(=O)N(NC(=O)c1ccccc1)C2=O
Output: inactive

Task: I'd appreciate the recorded outcome for COc1ccc2c(c1)C(=O)c1ccc(OC)cc1C2=S from this test.
Output: inactive

Task: # outcome recorded in this test, key = C/C(=N\Nc1nc2ccccc2n1C)c1ccncn1
Output: active

====

system: HT-29; experiment: NCI tumour cell line growth inhibition, 48 h
Activity calls are given as the source filed them. No stated cut-off is given here; in the data, active = GI50 up to about 1.1 µM and inactive = higher.
Would you kindly list GI50 for each of these molecules?

# count of solved cases: 2
Molecule	Endpoint Name	Result
C#CCN(N=O)C(=O)NC(CCCNC(=O)OCc1ccccc1)C(=O)OCc1ccccc1 (stereo not drawn)	GI50	> 100 µM (inactive)
Cc1ccc(/C=C2\N=C(N3CCCCC3)NC2=O)cc1	GI50	95.9 µM (inactive)

Task: Field request: GI50 | item: Cc1ccc(C(=O)N/N=C(\N=N\c2cccc(Cl)c2)c2ccc(N(CCC#N)CCC#N)cc2C)cc1
Output: 90.2 µM (inactive)

====

I'd be grateful if you could share measured GI50 for these entries.
system: HOP-62; experiment: NCI tumour cell line growth inhibition, 48 h
Active and inactive are the calls of the source. No stated cut-off is given here; in the data, active = GI50 up to about 1.1 µM and inactive = higher.

Record excerpt, results attached:
Compound	GI50
CCN1CCCC(Nc2cc(C)nc(NC(=N)Nc3ccc(Cl)c(Cl)c3)n2)C1 (centres undefined)	1.43 µM (inactive)
Cc1ccc(NCC(=O)N2CC(=O)Nc3ccccc32)c(C)c1	> 100 µM (inactive)
COc1cc([C@@H]2c3cc4c(cc3[C@@H](NCc3ccccc3F)C3COC(=O)[C@@H]32)OCO4)cc(OC)c1O (some centres undefined)	1.93 µM (inactive)
O=[N+]([O-])C1=Cc2c(O)ccc(O)c2C2c3ccccc3NC12 (centres undefined)	11.3 µM (inactive)
O=C1c2ccccc2C(=O)c2[nH]cnc21	> 100 µM (inactive)

Please report GI50 for every entry that follows.
1. O=C1N[C@@H]2c3c(Br)sc(Br)c3C(=O)[C@@H]2O1
2. CCOC(C[C@H](O)[C@H]1COC(=S)S1)OCC
3. COc1cc([C@H]2CC(=O)C[C@H](c3cc(OC)c(OC)c(OC)c3)C23C(=O)c2ccccc2C3=O)cc(OC)c1OC
4. Cc1cccc2oc3c(CC(=O)O)cccc3c(=O)c12

Output:
1: 22 µM (inactive); 2: > 100 µM (inactive); 3: 51.5 µM (inactive); 4: > 100 µM (inactive)
